Source of measurements: PubChem BioAssay (NCI)

Tested on: RPMI-8226 leukemia
Test: NCI-60 one-dose screen, 48 h
Details: 10 µM
Compounds without any hit were thinned out: in the full panel of roughly 83,000, 20% have a hit. Active and inactive are the calls of the source. The calls were made as follows: active = growth percent below 10; inactive = the rest.
Field 'call' accepts TRUE = active, FALSE = inactive

IN: Each compound tested received a call. Report the one for O=C1S/C(=C\c2ccc([N+](=O)[O-])cc2)C(=O)N1CCN1CCCCC1 .
OUT: FALSE

IN: Each compound tested received a call. Report the one for Cn1cc(-c2cc(N)n3nc(-c4cn(C)c5ccccc45)cc3n2)c2cc(F)ccc21 .
OUT: TRUE

IN: Each compound tested received a call. Report the one for C#C[C@]1(O)CC[C@H]2[C@@H]3CC=C4c5sc(Nc6ccc(C(F)(F)F)cn6)nc5CC[C@]4(C)[C@H]3CC[C@@]21C .
OUT: TRUE

IN: Each compound tested received a call. Report the one for COc1ccc(C2c3sc4ccc(C)cc4c3Oc3nc[nH]c(=O)c32)cc1 (configuration not stated) .
OUT: FALSE

IN: Each compound tested received a call. Report the one for O=C(O)CCN1C(=O)/C(=C/C=C/c2ccc([N+](=O)[O-])o2)SC1=S .
OUT: TRUE

IN: Each compound tested received a call. Report the one for COc1ccc(-n2c(SCC(=O)NNS(=O)(=O)c3ccccc3)nc3ccc(Cl)cc3c2=O)cc1 .
OUT: FALSE

IN: Each compound tested received a call. Report the one for COc1cc2oc(-c3cccc(C(=O)Nc4ccc(Cl)cc4)c3)cc(=O)c2c(OCCNC(=O)[C@@H](N)CO)c1OC .
OUT: TRUE

IN: Each compound tested received a call. Report the one for Cc1ccc2sc3c(c2c1)Oc1nc[nH]c(=O)c1C3c1cccc(F)c1 (configuration not stated) .
OUT: FALSE

IN: Each compound tested received a call. Report the one for CC(C)(C)c1cc(/C=C2\S/C(=N/c3ncn[nH]3)NC2=O)cc(C(C)(C)C)c1O .
OUT: TRUE

IN: Each compound tested received a call. Report the one for Cc1cc(N=C2NC(=O)/C(=C/c3cc(C(C)(C)C)c(O)c(C(C)(C)C)c3)S2)n[nH]1 .
OUT: TRUE

IN: Each compound tested received a call. Report the one for COc1cc(C2CC(c3ccccc3)=Nc3c(N)nc(N)nc3N2)ccc1Oc1nc(NCCO)nc(N2CCOCC2)n1 (configuration not stated) .
OUT: FALSE

IN: Each compound tested received a call. Report the one for COc1ccc(Cc2nn(CC(=O)N/N=C/c3ccc([N+](=O)[O-])cc3)c(=O)c3c(C)noc23)cc1 .
OUT: FALSE

IN: Each compound tested received a call. Report the one for CCOc1ccc(/C=N/NC(=O)Cn2nc(Cc3ccc(OC)cc3)c3onc(C)c3c2=O)cc1 .
OUT: FALSE

IN: Each compound tested received a call. Report the one for COc1cccc(O)c1/C=C1\SCc2cc3c(OC)cccc3[o+]c21 .
OUT: FALSE

IN: Each compound tested received a call. Report the one for COc1cc(C2CC(c3ccc(Oc4ccc(Cl)cc4)cc3)=NN2c2nc(-c3ccc(Cl)cc3)c(C#N)c(N3CCOCC3)n2)cc(OC)c1OC (configuration not stated) .
OUT: FALSE

IN: Each compound tested received a call. Report the one for O=C(c1ccc(Cl)cc1)C(c1c[nH]c2ccccc12)c1c[nH]c2ccccc12 .
OUT: TRUE

IN: Each compound tested received a call. Report the one for Cn1cc(-c2nc(N)nnc2-c2c[nH]c3ccccc23)c2cc(Br)cnc21 .
OUT: FALSE
